Biological target: Broad substrate specificity ATP-binding cassette transporter ABCG2 (Homo sapiens)
Sequence (Q9UNQ0 whole entry): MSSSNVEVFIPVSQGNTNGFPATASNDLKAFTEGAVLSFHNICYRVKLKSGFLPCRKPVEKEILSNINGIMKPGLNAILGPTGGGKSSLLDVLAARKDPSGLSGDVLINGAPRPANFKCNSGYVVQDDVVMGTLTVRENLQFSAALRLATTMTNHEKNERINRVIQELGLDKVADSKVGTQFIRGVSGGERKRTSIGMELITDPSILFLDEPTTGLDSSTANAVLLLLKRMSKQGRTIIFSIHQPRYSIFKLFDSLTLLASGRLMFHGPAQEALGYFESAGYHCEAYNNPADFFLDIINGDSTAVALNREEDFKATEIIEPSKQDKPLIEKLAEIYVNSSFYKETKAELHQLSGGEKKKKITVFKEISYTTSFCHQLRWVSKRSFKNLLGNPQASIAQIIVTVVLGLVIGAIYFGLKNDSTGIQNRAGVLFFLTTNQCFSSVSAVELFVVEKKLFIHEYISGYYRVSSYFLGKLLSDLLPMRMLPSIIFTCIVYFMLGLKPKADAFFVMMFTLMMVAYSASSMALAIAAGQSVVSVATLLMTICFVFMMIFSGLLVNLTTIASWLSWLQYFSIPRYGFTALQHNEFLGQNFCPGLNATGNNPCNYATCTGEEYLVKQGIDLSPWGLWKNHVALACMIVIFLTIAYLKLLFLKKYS
Assay: Inhibition of human BCRP expressed in MDCK2 cells assessed as Hoechst 33342 accumulation preincubated for 30 mins by fluorimetry
Format: cell-based, MDCK-II
Conditions: read-out: IC50
readoutKind: pIC50
Scale note: pIC50 = -log10(concentration in M).

*Q* // query pIC50 value for entry `COc1cccc(/C=C/C(=O)c2ccc(OC)cc2O)c1`
*A* 5.83

*Q* Again, but for `COc1ccc(/C=C/C(=O)c2c(O)ccc3ccccc23)cc1`
*A* 5.54

###

Below, each of the molecules is paired with its reported IC50 value.
Target: UniProt Q9UNQ0
Test: Inhibition of human BCRP expressed in MDCK2 cells assessed as Hoechst 33342 accumulation preincubated for 30 mins by fluorimetry
Format: cell-based, MDCK-II
Details: read-out: IC50
The reply should contain only the number, in nM.

COc1ccc(C(=O)/C=C/c2ccccc2Cl)c(O)c1 | 3320

*Q* What does the data say about its IC50? Entry: `COc1ccc(C(=O)/C=C/c2ccc(Cl)cc2)c(OC)c1`
*A* 1130

*Q* Okay, and `COc1cccc(/C=C/C(=O)c2ccc(O)cc2O)c1` ?
*A* 1940
